- RUN DESCRIPTION: pH measurement of acidic/basic substances (2.5% liquid, pH meter)
- Format: physicochemical
- PARTICULARS: 50 mg substance dissolved or suspended in 1,950 μL of water (concentration: 2.5%)
MEASUREMENT NAME: pH
One number for each entry.

Example molecules with recorded pH:
O=C([O-])CC(O)(CC(=O)O)C(=O)O.[Na+] [MONOBASIC SODIUM CITRATE, monobasic sodium citrate]
3.7
O=C(O)CC(O)C(=O)O (racemic) [DL-MALIC ACID, DL-malic acid]
2.1
Cl.N[C@@H](CCC(=O)O)C(=O)O [L-GLUTAMIC ACID HYDROCHLORIDE, L-glutamic acid hydrochloride]
1.5
O=C(O)C(O)C(O)C(=O)O [L-(+)TARTARIC ACID, L-(+)tartaric acid]
1.9
O=C(O)CC(O)(CC(=O)O)C(=O)O [ANHYDROUS CITRIC ACID, citric acid anhydride]
2.1

# input for lookup
Give pH for N[C@@H](CC(=O)O)C(=O)O [L-ASPARTIC ACID, L-aspartic acid]
2.8

Reference source for all entries: patent US9603804B2
